Molecular target: T1, intact high molecular weight kininogen (HMWK) (Homo sapiens, UniProt P01042 19-644)
T1 construct: also called intact HMWK; 1-chain HMWK
T1 sequence: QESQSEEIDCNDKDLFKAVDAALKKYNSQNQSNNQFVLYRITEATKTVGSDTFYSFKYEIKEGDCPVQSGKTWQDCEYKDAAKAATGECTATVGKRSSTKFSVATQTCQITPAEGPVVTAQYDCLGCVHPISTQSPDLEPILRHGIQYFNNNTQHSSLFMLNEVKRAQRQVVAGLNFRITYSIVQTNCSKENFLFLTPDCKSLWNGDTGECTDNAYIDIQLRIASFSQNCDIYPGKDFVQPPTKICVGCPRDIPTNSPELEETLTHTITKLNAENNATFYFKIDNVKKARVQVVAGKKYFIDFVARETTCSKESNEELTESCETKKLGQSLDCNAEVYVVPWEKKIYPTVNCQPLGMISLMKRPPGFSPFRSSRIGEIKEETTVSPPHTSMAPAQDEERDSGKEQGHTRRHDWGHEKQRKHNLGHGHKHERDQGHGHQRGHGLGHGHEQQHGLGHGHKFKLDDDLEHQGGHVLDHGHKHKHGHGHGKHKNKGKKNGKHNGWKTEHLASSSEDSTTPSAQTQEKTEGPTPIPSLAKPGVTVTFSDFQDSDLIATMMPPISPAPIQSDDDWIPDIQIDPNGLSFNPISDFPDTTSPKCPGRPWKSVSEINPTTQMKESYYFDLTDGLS
Assay: ELISA: Fab coated on 96-well plate, LowCross block, biotinylated antigen, streptavidin-HRP; signal over uncoated well
Experimental Endpoint: binding result

Asked: Answer with reported binding result of 559B-M0061-G06 (Fab, V domains shown) VH: EVQLLESGGGLVQPGGSLRLSCAASGFTFSKYTMWWVRQAPGKGLEWVSVISSSGGKTYYADSVKGRFTISRDNSKNTLYLQMNSLRAEDTAVYYCARTANRAFDIWGQGTMVTVSS VL: DIQMTQSPAALSVSPGERATLSCRASQSVSSDLAWYQQKPGQAPRLLIHGASTRATGIPARFSGSGSGREFTLTISSLQSEDFAVYYCQQYNDWPPLFGPGTKVNIK
Given back: binds

Asked: Answer with reported binding result of 559B-M0044-E09 (Fab, V domains shown) VH: EVQLLESGGGLVQPGGSLRLSCAASGFTFSQYSMGWVRQAPGKGLEWVSSIYSSGGSTQYADSVKGRFTISRDNSKNTLYLQMNSLRAEDTATYYCARTRRGWFGEDYYYYMDVWGKGTTVTVSS VL: DIQMTQSPSSLSASVGDRITITCRASQGIRNDVGWYQQKPGKAPQRLIYAASSLQSGVPSRFSGSGSGTEFTLTISSLQPEDFATYYCLQHNSYPLTFGGGTKVEIK
Given back: binds
